Experiment: self-splicing fitness, log relative to wild type (ln ratio); higher = more splicing; Tetrahymena group I intron in knt gene, E. coli kanamycin selection, DiMSum; sequences stand for … in CUCUCU…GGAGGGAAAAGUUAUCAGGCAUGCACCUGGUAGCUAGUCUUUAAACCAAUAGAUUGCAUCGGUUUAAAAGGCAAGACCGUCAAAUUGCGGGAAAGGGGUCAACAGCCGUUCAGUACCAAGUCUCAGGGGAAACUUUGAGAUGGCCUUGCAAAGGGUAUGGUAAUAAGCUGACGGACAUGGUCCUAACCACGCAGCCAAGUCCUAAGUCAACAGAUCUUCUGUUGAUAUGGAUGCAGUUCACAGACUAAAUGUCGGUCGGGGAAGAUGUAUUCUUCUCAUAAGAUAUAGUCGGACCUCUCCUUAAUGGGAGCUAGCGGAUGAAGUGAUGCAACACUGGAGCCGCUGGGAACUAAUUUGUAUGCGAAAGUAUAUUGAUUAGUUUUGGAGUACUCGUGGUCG;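 further: selection with 25 µg/mL kanamycin versus none on LB agar overnight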
Conditions: 37 °C
Recorded endpoint: self-splicing fitness (ln)

Lookup: Query: self-splicing fitness (ln); subject: GCAGAGCAAUAUUACGCCCA
Found: -0.895

Lookup: Query: self-splicing fitness (ln); subject: GCCGAGCAAUAUUACGUUCG
Found: -2

Lookup: Query: self-splicing fitness (ln); subject: CCACAGCAAUAUUACGAUCA
Found: -1.98

Lookup: Query: self-splicing fitness (ln); subject: UUACAGCAAUAUUACGCGCC
Found: -0.896

----------
Assay: self-splicing fitness, log relative to wild type (ln ratio); higher = more splicing; Tetrahymena group I intron in knt gene, E. coli kanamycin selection, DiMSum; sequences stand for … in CUCUCU…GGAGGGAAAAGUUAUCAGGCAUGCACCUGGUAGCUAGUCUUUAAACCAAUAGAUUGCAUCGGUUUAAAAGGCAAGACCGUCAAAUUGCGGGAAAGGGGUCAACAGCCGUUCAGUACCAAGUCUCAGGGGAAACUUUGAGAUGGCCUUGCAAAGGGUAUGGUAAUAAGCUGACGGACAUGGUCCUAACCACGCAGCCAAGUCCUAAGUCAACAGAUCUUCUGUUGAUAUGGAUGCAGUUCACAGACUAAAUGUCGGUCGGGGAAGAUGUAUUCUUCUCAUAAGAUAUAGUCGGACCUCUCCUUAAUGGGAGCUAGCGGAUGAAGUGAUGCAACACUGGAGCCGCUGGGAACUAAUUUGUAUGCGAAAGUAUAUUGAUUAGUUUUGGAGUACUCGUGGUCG
Conditions: 37 °C
Everything with self-splicing fitness (ln) lower than -1 is n; everything else, including exactly -1, is y.

Lookup: Form field: self-splicing fitness (ln) at least -1? Entry: AUCGAGCAAUAUUACGGAUC
Found: n

Lookup: Form field: self-splicing fitness (ln) at least -1? Entry: GCGUAGCAAUAUUACGAUAU
Found: y

Lookup: Form field: self-splicing fitness (ln) at least -1? Entry: CAAAAGCAAUAUUACGGGUC
Found: n

Lookup: Form field: self-splicing fitness (ln) at least -1? Entry: GCGCAGCAAUAUUACGUCAU
Found: y

Lookup: Form field: self-splicing fitness (ln) at least -1? Entry: GACUAGCAAUAUUACGCGGU
Found: n

Lookup: Form field: self-splicing fitness (ln) at least -1? Entry: CCCAAGCAAUAUUACGUACC
Found: n

Reference source for all entries: the supplement of paper PMC7877785
